So I've got a bunch of compounds here, and I need their growth values.
- Test system: SK-MEL-2 melanoma
- assay_procedure: NCI-60 one-dose screen, 48 h (100 = growth as untreated, 0 = no growth, -100 = all killed)
- condition_parameters: 10 µM
- Description: Growth inhibition of the SK-MEL-2 human tumor cell line is measured as a screen for anti-cancer activity. Cells are grown in 96 well plates and exposed to the test compound for 48 hours. Compounds are tested at a single concentration, which is 10^-5 M for most compounds. The reported endpoint is percent growth (GI% or GIPRCNT), where numbers from 0 - 100% represent growth inhibition, and numbers from -100% - 0 represent cell death. For example, a value of 40 represents 60% growth inhibition. […]
About 83,000 compounds went through this panel and 20% of them were active in at least one assay; those are over-represented in the sample as a whole.
Write the answer as a number in %, unit excluded.

QUERY: Dear colleague, I am looking for the recorded growth of the following compound: `Cc1sc2c(c1C)c(=O)nc1c(-c3nc(-c4ccccc4)cs3)n[nH]n12`
RESULT: 99.9

QUERY: Dear colleague, I am looking for the recorded growth of the following compound: `COc1cnc2c(c1)C(=O)c1c-2n(CCCN2CCC(N)CC2)c(=O)c2cc([N+](=O)[O-])ccc12`
RESULT: 109

QUERY: Dear colleague, I am looking for the recorded growth of the following compound: COC(=O)CC[C@@H](C)[C@H]1CC[C@H]2C3CC[C@@H]4C[C@@H]5CC[C@]4(C)[C@@]3(O5)[C@H](Br)[C@@H](Br)[C@]12C (some centres undefined)
RESULT: 93

QUERY: Dear colleague, I am looking for the recorded growth of the following compound: `O=C(NO)c1ccc(Cn2c(=O)n(CCc3ccccc3)c(=O)c3ccccc32)cc1`
RESULT: 45.7

QUERY: Dear colleague, I am looking for the recorded growth of the following compound: CCC1(/C=N/NC(N)=S)NC(=O)NC1=O (centres undefined)
RESULT: 109

QUERY: Dear colleague, I am looking for the recorded growth of the following compound: `COc1ccc(CCCc2c3[n+](cc4c(OC)c(OC)ccc24)CCc2cc4c(cc2-3)OCO4)cc1`
RESULT: 60.1

QUERY: Dear colleague, I am looking for the recorded growth of the following compound: `Nc1c(C(=O)c2ccccc2)sc2nc(-c3cccs3)cc(-c3cccs3)c12`
RESULT: 40.9

QUERY: Dear colleague, I am looking for the recorded growth of the following compound: COC(=O)C1CCc2sc3ncnc(Nc4cn[nH]c4C(=O)Nc4ccc(CN5CCN(C)CC5)cc4)c3c21 (centres undefined)
RESULT: -20.4

QUERY: Dear colleague, I am looking for the recorded growth of the following compound: `Nc1c2c(c(O)c3c1=C(CO)C=N3)=NCCS2`
RESULT: -54.6

QUERY: Dear colleague, I am looking for the recorded growth of the following compound: `CCOC(=O)C1=C(C)N=C2Sc3cc(OC(F)(F)F)ccc3N2[C@H]1c1ccccn1`
RESULT: 43.6

QUERY: Dear colleague, I am looking for the recorded growth of the following compound: `COc1cnc2c(c1)C(=O)c1c-2n(CCCn2ccnc2)c(=O)c2cc(Cl)ccc12`
RESULT: 50

QUERY: Dear colleague, I am looking for the recorded growth of the following compound: CC(=Nc1ccccc1)C1=C(O)C(Cc2ccc(O)cc2)NC1=O (centres undefined)
RESULT: 42.2

QUERY: Dear colleague, I am looking for the recorded growth of the following compound: `CCN(CC)CCNc1ccc(N=Nc2cnc3ccccc3c2)c2ccccc12`
RESULT: -76.9

QUERY: Dear colleague, I am looking for the recorded growth of the following compound: `Cc1cc2c(-c3nc4ccccn4c3N)c(O)c(O)cc2c(O)c1-c1c(C)cc2c(-c3nc4ccccn4c3N)c(O)c(O)cc2c1O`
RESULT: -20.6

QUERY: Dear colleague, I am looking for the recorded growth of the following compound: `Nc1ncnc2c1ccn2-c1cccc(NC(=O)c2ccc(N3CCOCC3)c(C(F)(F)F)c2)c1`
RESULT: 37.7

QUERY: Dear colleague, I am looking for the recorded growth of the following compound: CC(C)=CCc1cc2c(cc1O)C1=C(C(=O)C3=C(C1=O)S(=O)(=O)CCN3)C(C=C(C)C)O2 (centres undefined)
RESULT: -53.9

QUERY: Dear colleague, I am looking for the recorded growth of the following compound: Cc1cc(O)c2c(c1)C1OC(=O)CCCCCN1C1=C2C(=O)c2cccc(OC3CC(O)C(O)C(C)O3)c2C1=O (centres undefined)
RESULT: 46.4

QUERY: Dear colleague, I am looking for the recorded growth of the following compound: `Clc1nc(Cl)c2ncn(C/C=C\Cn3cnc4c(Cl)nc(Cl)nc43)c2n1`
RESULT: 23.5

QUERY: Dear colleague, I am looking for the recorded growth of the following compound: `COc1cnc2c(c1)C(=O)c1c-2n(CCCNC2=NCCS2)c(=O)c2cc(Cl)ccc12`
RESULT: 90.5

----------
- System: MCF7 breast
- assay_procedure: NCI-60 one-dose screen, 48 h (100 = growth as untreated, 0 = no growth, -100 = all killed)
- condition_parameters: 10 µM unless noted
This is part of a sample that, as a whole, favours compounds with a hit. Of some 83,000 tested, about 20% had one in any assay.
Labelling: growth reported below 20% becomes condition met; at or above becomes condition not met.

QUERY: # TODO verify growth < 20% strictly for this compound: `CS(=O)(=O)N1CCc2c(-c3cnc(N)nc3)nc(N3CCOCC3)nc21`
RESULT: condition met

QUERY: # TODO verify growth < 20% strictly for this compound: `COc1ccc(Cc2cc(-c3ccccc3C)n[nH]c2=O)cc1`
RESULT: condition not met

QUERY: # TODO verify growth < 20% strictly for this compound: `Cc1nc(N)sc1-c1ccnc(Nc2ccc(N3CCOCC3)cc2)n1`
RESULT: condition not met

QUERY: # TODO verify growth < 20% strictly for this compound: Cc1nn(-c2nc3ccccc3[nH]2)c2c1C(c1ccc(OCc3ccc(F)cc3)cc1)CC(=O)N2 (centres undefined)
RESULT: condition not met

QUERY: # TODO verify growth < 20% strictly for this compound: `O=C(Nc1cccc(Cl)c1)Nc1ncc(CCNc2ncnc3ccsc23)s1`
RESULT: condition met

QUERY: # TODO verify growth < 20% strictly for this compound: `COc1cc(NCCN(CC(C)C)CC(C)C)c2ncc(C)cc2c1`
RESULT: condition met

QUERY: # TODO verify growth < 20% strictly for this compound: `O=C1NC(=O)/C(=C/c2ccc3nccc(-c4ccncc4)c3c2)S1`
RESULT: condition met

QUERY: # TODO verify growth < 20% strictly for this compound: `CC(C)[C@@H]1CC[C@@H]2[C@@H]1[C@H](OC(=O)/C=C/c1ccccc1)[C@]1(C(C)C)C[C@@H](OC(=O)CO)[C@@]2(C)O1`
RESULT: condition not met

QUERY: # TODO verify growth < 20% strictly for this compound: `CCN(CCO)CCCOc1ccc2c(Nc3cc(CC(=O)Nc4cccc(F)c4)[nH]n3)ncnc2c1`
RESULT: condition met

QUERY: # TODO verify growth < 20% strictly for this compound: `c1cc(OCCN2CCCCC2)cc(-c2n[nH]c3ccc(-c4ncn[nH]4)cc23)c1`
RESULT: condition not met

QUERY: # TODO verify growth < 20% strictly for this compound: `N#Cc1c(NC(=O)c2ccco2)[n+]([O-])c2cc(F)c(F)cc2[n+]1[O-]`
RESULT: condition not met

QUERY: # TODO verify growth < 20% strictly for this compound: `COc1ccc(-c2nc(N)ncc2Oc2ccccc2OC)c(O)c1`
RESULT: condition not met

QUERY: # TODO verify growth < 20% strictly for this compound: `COc1cc2nccc(Oc3ccc(NC(=O)C4(C(=O)Nc5ccc(F)cc5)CC4)cc3)c2cc1OC`
RESULT: condition met

QUERY: # TODO verify growth < 20% strictly for this compound: `N#CC(C#N)=NO`
RESULT: condition not met

QUERY: # TODO verify growth < 20% strictly for this compound: `O=C(NOC[C@H](O)CO)c1ccc(F)c(F)c1Nc1ccc(I)cc1F`
RESULT: condition not met

QUERY: # TODO verify growth < 20% strictly for this compound: COC(=O)[C@@H](OC)[C@@H]1Cc2cc3cc(OC4CC(OC5CC(O)C(O)C(C)O5)C(O)C(C)O4)c(C)c(O)c3c(O)c2C(=O)[C@H]1OC1CC(OC2CC(OC3CC(C)(O)C(O)C(C)O3)C(O)C(C)O2)C(O)C(C)O1 (some centres undefined)
RESULT: condition met

QUERY: # TODO verify growth < 20% strictly for this compound: `CN1CCN(Cc2ccc(NC(=O)c3[nH]ncc3Nc3ncnc4sc5c(c34)CCCC5)cc2)CC1`
RESULT: condition met

QUERY: # TODO verify growth < 20% strictly for this compound: `CCN1CCN(c2cc(C)nc(N(CCCNc3ccnc4cc(Cl)ccc34)Cc3ccc4c(c3)OCO4)n2)CC1`
RESULT: condition met
